Each recorded value in this set is attributed to PubChem BioAssay (NCI).

# System: TK-10 renal
# protocolNotes: NCI-60 one-dose screen, 48 h (100 = growth as untreated, 0 = no growth, -100 = all killed)
# conditionsUsed: 10 µM unless noted
About 83,000 compounds went through this panel and 20% of them were active in at least one assay; those are over-represented in the sample as a whole.
Use 90% as the dividing line for growth, with the line itself on the 1 side and lower values as 0.

compound | tgt | classLabel
Cn1cc(Nc2nccc(-c3ccc(N4CCCC4)c(C#N)c3)n2)cn1 | TK-10 renal | 0
COc1cc(/C=C/c2nc(Nc3ccc(S(=O)(=O)Nc4cc(C)on4)cc3)c3ccccc3n2)ccc1O | TK-10 renal | 1
O=[N+]([O-])c1ccc(-c2cc3c(Nc4ccc(OCc5cccc(Cl)c5)c(Cl)c4)ncnc3s2)cc1 | TK-10 renal | 0
COc1cc(-c2cccc([N+](=O)[O-])c2)c(-c2nc(-c3ccccc3)c(-c3ccccc3)n2C2CC2)cc1OC | TK-10 renal | 0
O=C(/C=C/C12c3ccccc3C(c3ccccc31)C1C(=O)N(c3ccccc3)C(=O)C12)c1ccc(Cl)cc1 (stereo not drawn) | TK-10 renal | 0
C[C@H]1[C@H]2C3=CC[C@@H]4[C@@]5(C)C/C(=C/c6ccncc6)C(=O)C(C)(C)[C@@H]5CC[C@@]4(C)[C@]3(C)CC[C@@]2(C(=O)N2CCN(C)CC2)CC[C@@H]1C | TK-10 renal | 0
CNC1(C#N)CCN(Cc2ccccc2)CC1 | TK-10 renal | 1
CN(C)CCN1C(=O)c2cccc3c(-c4ccc(-c5nc6c7ccccc7c7ccccc7c6[nH]5)cc4)ccc(c23)C1=O | TK-10 renal | 1
